Where do the numbers come from? From PubChem BioAssay (NCI).

- Protocol Description: NCI Yeast Anticancer Drug Screen. Data for the rad50 strain (AID 155);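 note: 0% = growth of vehicle-only cultures of the same strain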
- Condition Summary: S. cerevisiae rad50 strain growth inhibition; at 50.0 µM
About 79,000 compounds went through this panel and 15% of them were active in at least one assay; those are over-represented in the sample as a whole. Activity calls are given as the source filed them. Cut-off read from the data, not from the text of the source: active = growth inhibition above about 70%; inactive = the rest.
The categories you may choose from are active, inactive

molecule=Clc1ccc(C2=CSC3=NCCN23)cc1 label_class=inactive
molecule="COC(=O)CC(C)N(c1cccc(Cl)c1)S(=O)(=O)c1ccc(C)cc1 (stereo not given)" label_class=inactive
molecule="Nc1ccn(C2OC(CO)C(O)C2Br)c(=O)n1 (stereo not given)" label_class=inactive
molecule=O=NSC(c1ccccc1)(c1ccccc1)c1ccccc1 label_class=inactive

Look up the recorded call for CCOC/C(=N\NC(N)=O)c1ccccc1 in this test. inactive

Look up the recorded call for Cc1ccccc1S(=O)(=O)NSc1ccccc1[N+](=O)[O-] in this test. inactive

Look up the recorded call for O=C1c2cc(CCl)sc2C(=O)c2ccsc21 in this test. active

Look up the recorded call for C=C(C)C(C)(C)n1[nH]c(=O)n(-c2ccccc2)c1=O in this test. inactive

Look up the recorded call for CN(Cc1cnc2nc(N)nc(N)c2n1)c1ccc(C(=O)NC(CCCCN)C(=O)O)cc1 (stereo not given) in this test. inactive

Look up the recorded call for O=C(O)c1c[nH]c2c([N+](=O)[O-])cccc2c1=O in this test. inactive

Look up the recorded call for CCCOC(=O)CCCCC(=O)OCCC in this test. inactive

----------
- Protocol Description: NCI Yeast Anticancer Drug Screen. Data for the sgs1 mgt1 strain (AID 161);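 note: 0% = growth of cultures given vehicle only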
- Condition Summary: S. cerevisiae sgs1 mgt1 strain, at 50.0 µM, active compounds read high
About 79,000 compounds went through this panel and 15% of them were active in at least one assay; those are over-represented in the sample as a whole.
Property Label: growth inhibition (%)
Just the number please, in %, no unit attached.

The examples below pair each entry with its known result.
compound=CCOC(=O)/C=C1\CCCC12OCCO2 val=3.1
compound=COC(=O)Oc1ccc(Cl)cc1Cl val=15.9
compound=Cc1ccc(N2CCCCN(c3ccc(C)cc3)/C(c3ccccc3)=C\2c2ccccc2)cc1 val=-7

Briefly, growth inhibition measured for Cc1ccc(S(=O)(=O)N/N=C(/c2ccccc2)c2ccsc2C)cc1 : 37

Briefly, growth inhibition measured for CC(C)N(C(=O)c1ccc([Si](C)(C)C)c(C(=O)N(C(C)C)C(C)C)n1)C(C)C : 20.9

Briefly, growth inhibition measured for CC(N)c1ccc(OCCOc2ccc(C(C)(C)CC(C)(C)C)cc2)cc1 (configuration not stated) : 42.7

Briefly, growth inhibition measured for CCOC(=O)CN(C=O)C(C)c1ccccc1 (configuration not stated) : 4.4

Briefly, growth inhibition measured for COC(=O)C1(Cc2ccc3c(c2)CCC3)Cc2cc3c(cc2C1)CCC3 : -40.2

Briefly, growth inhibition measured for COc1cc2ccc3c[n+]4ccccc4cc3c2cc1OC : 19.9

Briefly, growth inhibition measured for Cc1ccc(N2CCN(c3ccc([N+](=O)[O-])cc3)CC2)cc1Cl : 2.85

Briefly, growth inhibition measured for Cc1cccc(C)c1-n1c(C)nc2[nH]cc(C)c2c1=N : 4.55

Briefly, growth inhibition measured for C[N+](C)(C)CCCc1ccc2oc3ccccc3c2c1 : 7.35

----------
- Protocol Description: NCI Yeast Anticancer Drug Screen. Data for the cln2 rad14 strain (AID 165);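 note: 0% = growth equal to vehicle treated cultures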
- Condition Summary: S. cerevisiae cln2 rad14 strain, at 50.0 µM, active compounds read high
Compounds without any hit were thinned out: in the full panel of roughly 79,000, 15% have a hit.
Property Label: growth inhibition (%)
Just the number please, in %, no unit attached.

The examples below pair each entry with its known result.
compound="CC(O)CSCC(C)O (centres undefined)" property_label="growth inhibition" val=12.4
compound=C1=CCSC(Nc2ccccc2)=NC1 property_label="growth inhibition" val=-2.6
compound="CCC1CCC(C(C)(C)C)C(=O)C1 (centres undefined)" property_label="growth inhibition" val=-11.3

Briefly, growth inhibition measured for CCOc1ccc2nc(NC(=O)C(=O)C(C(=O)c3ccccc3F)C3OC(=O)c4ccccc43)sc2c1 (centres undefined) : 22.6

Briefly, growth inhibition measured for COc1ccc(C(O)S(=O)(=O)O)cc1 (centres undefined) : -6.75

Briefly, growth inhibition measured for c1ccc2c(c1)OP1(=NP3(=NP4(=NP5(=N1)Oc1ccccc1-c1ccccc1O5)Oc1ccccc1-c1ccccc1O4)Oc1ccccc1-c1ccccc1O3)Oc1ccccc1-2 : -4.1

Briefly, growth inhibition measured for CN(C)CC(=O)c1c[nH]c(=O)[nH]c1=O : -63.2

Briefly, growth inhibition measured for [Cu+2].[Cu+2].c1ccc2c(c1)-c1nc-2nc2[n-]c(nc3nc(nc4[n-]c(n1)c1ccccc41)-c1ccccc1-3)c1cc3c4nc5nc(nc6[n-]c(nc7nc(nc([n-]4)c3cc21)-c1ccccc1-7)c1ccccc61)-c1ccccc1-5 : -40.3

Briefly, growth inhibition measured for CS(=O)(=O)CCC(Nc1ccc([N+](=O)[O-])cc1[N+](=O)[O-])C(=O)O (centres undefined) : 4.25
